Exercise: for every item that follows, state its recorded inhibition.
- test_target: Mitogen-activated protein kinase 11 (Homo sapiens) (UniProt Q15759);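 also: values are mean percent inhibition of p38beta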
- Sequence (Q15759 whole entry): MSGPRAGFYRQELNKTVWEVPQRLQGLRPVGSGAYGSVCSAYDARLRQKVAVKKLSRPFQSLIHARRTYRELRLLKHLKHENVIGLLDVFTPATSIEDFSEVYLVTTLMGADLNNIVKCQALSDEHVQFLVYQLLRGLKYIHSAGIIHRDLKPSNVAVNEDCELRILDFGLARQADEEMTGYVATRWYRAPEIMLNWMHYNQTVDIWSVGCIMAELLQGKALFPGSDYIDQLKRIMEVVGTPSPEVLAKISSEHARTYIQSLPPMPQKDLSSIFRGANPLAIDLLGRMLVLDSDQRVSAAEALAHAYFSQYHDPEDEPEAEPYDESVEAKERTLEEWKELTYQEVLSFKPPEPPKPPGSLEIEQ
- study_conditions: at 1 µM
Lab book: enter the figure in %, no units written.

**Q:** State the recorded inhibition for this entry: CCS(=O)(=O)c1ccc(OC)c(Nc2nccc(N(C)c3ccc4c(C)n[nH]c4c3)n2)c1
**A:** 3.67

**Q:** Same read-out for COc1cc(Nc2nccc(-c3cnn4ncccc34)n2)cc(OC)c1 ?
**A:** 10.7

**Q:** Same read-out for COc1cc2ncn(-c3cc(OCc4ccccc4S(C)(=O)=O)c(C#N)s3)c2cc1OC ?
**A:** 6.97

* * *

- test_target: MAP kinase-activated protein kinase 3 (Homo sapiens)
- study_conditions: at 1 µM
- Description: GSK_PKIS: MAPKAPK3 mean inhibition at 1 uM [Nanosyn]
Label scheme for inhibition: lower than 10% is Not met, 10% and above is Met.

**Q:** Could you tell me if the measured inhibition of FC(F)(F)c1ccc(-c2nn3ncccc3c2-c2ccnc(Nc3ccc4c(c3)OCCO4)n2)cc1 reaches 10% or more?
**A:** Met

**Q:** Same read-out for COc1cc2ncnc(Nc3ccc(C)c(O)c3)c2cc1OC ?
**A:** Not met

**Q:** Same read-out for OCc1ccc(-c2nc(-c3ccccn3)c(-c3ccc4c(c3)OCO4)[nH]2)cc1 ?
**A:** Not met

**Q:** Same read-out for Cc1nc(-c2ccccc2)n2nc(NCCCN3CCOCC3)ncc12 ?
**A:** Not met

**Q:** Same read-out for Cc1ccc2c(-c3ccnc(Nc4ccc5c(c4)OCCO5)n3)c(-c3ccc(C(F)(F)F)cc3)nn2n1 ?
**A:** Met

* * *

Exercise: for every item that follows, state its recorded inhibition.
- test_target: Serine/threonine-protein kinase MARK1 (Homo sapiens);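 also: reported values are mean percent inhibition of MARK1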
- study_conditions: at 1 µM
Lab book: enter the figure in %, no units written.

**Q:** State the recorded inhibition for this entry: Cc1ccc(C(=O)NC2CC2)cc1-c1ccc2[nH]ncc2c1
**A:** 2.83

**Q:** Same read-out for COc1ccc2ncnc(Nc3ccc(OCc4ccccc4)cc3)c2c1 ?
**A:** 3.7

**Q:** Same read-out for COc1cccc(-n2nc(C)c3c(N/N=C(\C)c4ccncc4)ncnc32)c1 ?
**A:** 1.32

**Q:** Same read-out for O=C1Nc2ccccc2/C1=C/Nc1ccc2[nH]c(=O)[nH]c2c1 ?
**A:** 32.5

**Q:** Same read-out for CS(=O)(=O)Nc1cccc(-c2ccc3c(NC(=O)C4CC4)n[nH]c3c2)c1 ?
**A:** 3.49

**Q:** Same read-out for NS(=O)(=O)c1ccc(N/N=C2\C(=O)Nc3ccc(Cl)cc32)cc1 ?
**A:** 11.4

**Q:** Same read-out for CCn1c(-c2nonc2N)nc2ccc(F)cc21 ?
**A:** 6.7

**Q:** Same read-out for O=C(Nc1ccc(Oc2ccc3[nH]c(NC(=O)c4ccco4)nc3c2)cc1)Nc1cc(C(F)(F)F)ccc1F ?
**A:** 0.35

**Q:** Same read-out for OCc1ccc(-c2nc(-c3ccccn3)c(-c3ccc4c(c3)OCO4)[nH]2)cc1 ?
**A:** 4.32

**Q:** Same read-out for COc1cccc(-n2ncc3c(N/N=C/c4ccc(S(C)(=O)=O)cc4)ncnc32)c1 ?
**A:** 4.83

**Q:** Same read-out for ON=C1CCc2cc(-c3nc(C4CCNCC4)[nH]c3-c3ccncc3)ccc21 ?
**A:** 1.75

**Q:** Same read-out for Cc1cc(Cl)cc2c1NC(=O)C2=NNc1ccc(S(N)(=O)=O)cc1 ?
**A:** 4.87

* * *

- test_target: Protein kinase C eta type (Homo sapiens) (UniProt P24723);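 also: values are the mean percent inhibition of PKC-eta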
- Sequence (P24723 whole entry): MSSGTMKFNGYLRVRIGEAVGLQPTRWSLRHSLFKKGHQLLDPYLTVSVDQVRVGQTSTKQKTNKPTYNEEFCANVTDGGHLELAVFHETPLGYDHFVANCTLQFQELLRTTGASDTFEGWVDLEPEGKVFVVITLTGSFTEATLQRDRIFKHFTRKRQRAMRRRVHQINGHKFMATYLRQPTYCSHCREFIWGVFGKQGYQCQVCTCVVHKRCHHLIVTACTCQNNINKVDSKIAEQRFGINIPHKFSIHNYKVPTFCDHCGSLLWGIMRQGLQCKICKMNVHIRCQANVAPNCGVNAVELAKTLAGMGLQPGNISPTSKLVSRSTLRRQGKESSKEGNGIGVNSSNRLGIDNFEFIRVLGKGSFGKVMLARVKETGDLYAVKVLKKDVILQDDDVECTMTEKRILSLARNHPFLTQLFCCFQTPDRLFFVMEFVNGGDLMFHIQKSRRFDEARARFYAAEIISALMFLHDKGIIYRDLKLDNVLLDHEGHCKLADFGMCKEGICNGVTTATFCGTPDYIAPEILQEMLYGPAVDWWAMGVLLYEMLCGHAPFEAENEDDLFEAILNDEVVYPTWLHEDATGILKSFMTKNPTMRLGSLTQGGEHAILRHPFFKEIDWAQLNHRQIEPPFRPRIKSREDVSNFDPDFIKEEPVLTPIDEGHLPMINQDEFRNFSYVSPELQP
- study_conditions: at 0.1 µM
quantity_kind: inhibition

**Q:** State the recorded inhibition for this entry: CN1CCN(C(=O)c2ccc(NC(=O)Nc3ccc(N(C)c4ccnc(Nc5ccc(CS(C)(=O)=O)cc5)n4)cc3)cc2)CC1
**A:** 3.18%

**Q:** Same read-out for ON=C1CCc2cc(-c3nc(C4CCNCC4)[nH]c3-c3ccncc3)ccc21 ?
**A:** -0.55%

**Q:** Same read-out for COc1cccc(-n2ncc3c(N/N=C/c4ccc(S(C)(=O)=O)cc4)ncnc32)c1 ?
**A:** 1.23%

**Q:** Same read-out for COC(=O)Nc1nc2cc(Oc3ccc(NC(=O)Nc4cccc(Br)c4)cc3)ccc2[nH]1 ?
**A:** -0.37%

**Q:** Same read-out for O=C(Nc1ccc(Oc2ccc3[nH]c(NC(=O)c4ccco4)nc3c2)cc1)Nc1cc(C(F)(F)F)ccc1F ?
**A:** 1.15%

**Q:** Same read-out for Cc1ccc2c(-c3ccnc(Nc4ccc5c(c4)OCCO5)n3)c(-c3ccc(C(F)(F)F)cc3)nn2n1 ?
**A:** 0.94%

**Q:** Same read-out for NC(=O)c1sc(-n2cnc3ccccc32)cc1OCc1ccccc1Br ?
**A:** 5.09%

**Q:** Same read-out for CCOc1nccc2c1nc(-c1nonc1N)n2CC ?
**A:** 7.44%

**Q:** Same read-out for Cc1cc(O)cc(C)c1/C=C/c1cncc(C(=O)N(C)C)c1 ?
**A:** 3%

* * *

- test_target: Ribosomal protein S6 kinase alpha-2 (Homo sapiens) (UniProt Q15349)
- Sequence (Q15349 whole entry): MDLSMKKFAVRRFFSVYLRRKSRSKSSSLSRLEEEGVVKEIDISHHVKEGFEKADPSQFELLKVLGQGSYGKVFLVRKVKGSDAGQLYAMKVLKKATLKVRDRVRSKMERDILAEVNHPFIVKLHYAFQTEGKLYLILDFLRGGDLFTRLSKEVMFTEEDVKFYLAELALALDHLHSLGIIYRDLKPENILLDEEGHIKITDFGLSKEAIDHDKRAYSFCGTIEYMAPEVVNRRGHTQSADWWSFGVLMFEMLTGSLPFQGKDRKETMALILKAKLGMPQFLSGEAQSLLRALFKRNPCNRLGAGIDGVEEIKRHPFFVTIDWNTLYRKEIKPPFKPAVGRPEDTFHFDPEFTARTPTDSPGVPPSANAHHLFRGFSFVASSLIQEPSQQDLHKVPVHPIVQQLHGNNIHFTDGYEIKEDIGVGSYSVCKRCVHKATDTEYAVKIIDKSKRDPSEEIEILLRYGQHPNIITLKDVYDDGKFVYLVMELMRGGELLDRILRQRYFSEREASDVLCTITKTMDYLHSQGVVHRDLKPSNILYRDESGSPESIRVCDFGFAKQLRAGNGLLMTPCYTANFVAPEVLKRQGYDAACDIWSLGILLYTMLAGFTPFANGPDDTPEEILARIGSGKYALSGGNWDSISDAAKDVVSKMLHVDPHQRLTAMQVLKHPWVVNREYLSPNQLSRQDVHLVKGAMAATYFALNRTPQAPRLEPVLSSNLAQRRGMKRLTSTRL
- study_conditions: at 1 µM
Exercise: for every item that follows, state its recorded inhibition.
Lab book: enter the figure in %, no units written.

**Q:** Requested read-out inhibition, target or system Ribosomal protein S6 kinase alpha-2 (Homo sapiens) (UniProt Q15349), entry NS(=O)(=O)c1cccc(-c2cc3ccncc3cc2OCc2ccccc2)c1;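 also: value is the mean inhibition of RSK3 within GSK PKIS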
**A:** 2.38

**Q:** Same read-out for CN(C)C(=O)O[C@@H]1CN[C@@H](C#Cc2cc3ncnc(Nc4ccc(OCc5cccc(F)c5)c(Cl)c4)c3s2)C1 ?
**A:** 2.54

**Q:** Same read-out for NS(=O)(=O)c1cccc(Nc2cc(-c3ccc(F)cc3)n[nH]2)c1 ?
**A:** 4.15

**Q:** Same read-out for CC(C)c1ccc2c(c1)NC(=O)/C2=N/Nc1ccc(S(N)(=O)=O)cc1 ?
**A:** 2.15

**Q:** Same read-out for N#Cc1cccc(Nc2nccc(-c3cnn4ncccc34)n2)c1 ?
**A:** 4.16

**Q:** Same read-out for c1ccc(Nc2ncc(-c3ccccc3)o2)cc1 ?
**A:** 3.41

**Q:** Same read-out for NS(=O)(=O)c1ccc(N/N=C2\C(=O)Nc3ccc(Cl)cc32)cc1 ?
**A:** 2.94

**Q:** Same read-out for COc1cccc(-n2nc(C)c3c(N/N=C(\C)c4ccncc4)ncnc32)c1 ?
**A:** 0.23

**Q:** Same read-out for Nc1nccc(-c2c(-c3ccc(F)cc3)nn3cc(C(F)(F)F)ccc23)n1 ?
**A:** 0.63

**Q:** Same read-out for NC(=O)c1sc(-n2cnc3ccccc32)cc1OCc1ccccc1Br ?
**A:** 4.96

**Q:** Same read-out for COc1cc2ncnc(Nc3ccc4c(cnn4Cc4ccccc4)c3)c2cc1OC ?
**A:** 3.65

**Q:** Same read-out for COC(=O)c1cncc(/C=C/c2c(C)cc(O)cc2C)c1 ?
**A:** 2.47

**Q:** Same read-out for NS(=O)(=O)c1ccc(NC=C2C(=O)Nc3ccc4ncsc4c32)cc1 ?
**A:** 80.5

**Q:** Same read-out for Cc1cc(Cl)cc2c1NC(=O)C2=NNc1ccc(S(N)(=O)=O)cc1 ?
**A:** 1.19

**Q:** Same read-out for Cc1ccc(O)cc1Nc1ccnc2ccc(S(C)(=O)=O)cc12 ?
**A:** 3.02

**Q:** Same read-out for Nc1nccc(C#Cc2cncnc2Nc2ccc(OCc3cccc(F)c3)c(Cl)c2)n1 ?
**A:** 2.85

**Q:** Same read-out for CS(=O)(=O)Nc1cccc(-c2ccc3c(NC(=O)C4CC4)n[nH]c3c2)c1 ?
**A:** 2.19

**Q:** Same read-out for Cc1ccc2c(-c3ccnc(Nc4ccc5c(c4)OCCO5)n3)c(-c3ccc(C(F)(F)F)cc3)nn2n1 ?
**A:** 1.53

**Q:** Same read-out for COc1cc2ncn(-c3cc(OCc4ccccc4S(C)(=O)=O)c(C#N)s3)c2cc1OC ?
**A:** 10.2

**Q:** Same read-out for Cc1nc(-c2ccccc2)n2nc(NCCCN3CCOCC3)ncc12 ?
**A:** 7.6

**Q:** Same read-out for CN(C)C(=O)O[C@H]1CN[C@H](C#Cc2cc3ncnc(Nc4ccc(OCc5cccc(F)c5)c(Cl)c4)c3s2)C1 ?
**A:** 3.74

**Q:** Same read-out for Nc1ccc(C#Cc2cncnc2Nc2ccc(OCc3cccc(F)c3)c(Cl)c2)cc1 ?
**A:** 3.21

**Q:** Same read-out for NC(=O)c1cccc(Nc2nccc(Nc3cccc(F)c3)n2)c1 ?
**A:** 1.94

**Q:** Same read-out for CS(=O)(=O)CCNCc1nc(-c2ccc3ncnc(Nc4ccc(OCc5cccc(C(F)(F)F)c5)cc4)c3c2)cs1 ?
**A:** 2.09

**Q:** Same read-out for CCn1c(-c2nonc2N)nc2c(C#CC(C)(C)O)nc(OCCNC)cc21 ?
**A:** 7.49

**Q:** Same read-out for C[C@@H](Oc1cc(-n2cnc3ccc(OC[C@@H](O)CO)cc32)sc1C(N)=O)c1ccccc1Cl ?
**A:** 3.27

**Q:** Same read-out for CN1CCN(C(=O)c2ccc(NC(=O)Nc3ccc(N(C)c4ccnc(Nc5ccc(CS(C)(=O)=O)cc5)n4)cc3)cc2)CC1 ?
**A:** 4.07

**Q:** Same read-out for COc1cccc(-n2ncc3c(N/N=C/c4ccc(S(C)(=O)=O)cc4)ncnc32)c1 ?
**A:** 4.48

Data provenance is ChEMBL document CHEMBL1961873.
